The values you see were collected from patent US20200095340A1.

- tested-on: biotinylated human DLL3 protein expressed as a human IgG1 fusion protein (human) (UniProt Q9NYJ7)
- Sequence (Q9NYJ7 other isoform, or with tags, fused parts or gaps): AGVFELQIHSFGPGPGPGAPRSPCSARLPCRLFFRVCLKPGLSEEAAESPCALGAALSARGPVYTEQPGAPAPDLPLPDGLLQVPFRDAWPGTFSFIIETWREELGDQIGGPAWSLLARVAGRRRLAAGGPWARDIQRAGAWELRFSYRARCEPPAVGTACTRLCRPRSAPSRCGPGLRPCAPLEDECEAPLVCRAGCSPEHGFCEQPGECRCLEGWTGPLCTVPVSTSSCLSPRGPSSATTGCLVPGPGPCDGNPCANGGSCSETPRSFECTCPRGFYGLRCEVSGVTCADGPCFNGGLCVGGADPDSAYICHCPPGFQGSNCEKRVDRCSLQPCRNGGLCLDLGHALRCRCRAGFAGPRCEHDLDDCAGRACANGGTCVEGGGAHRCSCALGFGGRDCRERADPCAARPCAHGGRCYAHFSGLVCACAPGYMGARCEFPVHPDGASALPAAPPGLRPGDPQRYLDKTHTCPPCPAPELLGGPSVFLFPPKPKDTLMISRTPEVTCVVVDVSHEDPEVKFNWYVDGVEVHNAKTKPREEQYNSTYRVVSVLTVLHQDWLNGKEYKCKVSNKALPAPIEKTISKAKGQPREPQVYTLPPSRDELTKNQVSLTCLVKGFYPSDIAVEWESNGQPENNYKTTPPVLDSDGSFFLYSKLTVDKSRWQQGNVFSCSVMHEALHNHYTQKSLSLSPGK
- experimental-details: Octet BLI; biotinylated huDLL3-IgG1 fusion on streptavidin tips; single 50 nM; conditioned medium
measurement-type: Kd (nM)
Give the value in nM but do not write nM after it.

Past entries and their recorded results:
anti-DLL3 trispecific protein 3C08 (protein, part only; not given: anti-CD3 fragment and anti-albumin sdAb, part only) chain, part: EVQLVESGGGLVQPGGSLTLSCAASGSSVKFLSMAWYRQAPGKKRELVAGISLDGSTDYIDSVKGRFTISRDNAKNSVYLQMNSLRAEDTAVYYCYAYRWTGRYTYWGQGTLVTVSSGGGGSGGGSGGGGSGGGSHHHHHH :: 5.9
anti-DLL3 trispecific protein 4C05 (protein, part only; not given: anti-CD3 and anti-albumin domains, part only) chain, part: EVQLVESGGGLVQPGGSLTLSCAASGSSVSNLSMAWYRQAPGKKRELVAGISADGSTAYIDSVKGRFTISRDNAKNSVYLQMNSLRAEDTAVYYCYAYRWTTRRTYWGQGTLVTVSSGGGGSGGGSGGGGSGGGSHHHHHH :: 8.3
anti-DLL3 trispecific protein 2G08 (protein, part only; not given: anti-CD3 and anti-albumin domains, part only) chain, part: EVQLVESGGGLVQPGGSLTLSCVASGSTSYINAMGWYRRAPGKQRELVAGISSDGSKVYADSVKGRFTISRDNAKNSVYLQMNSLRAEDTAVYYCYYFRTVSGQSMGYWGQGTLVTVSSGGGGSGGGSGGGGSGGGSHHHHHH :: 4.1

Attention now turns to another entry.
Give the measured Kd of anti-DLL3 trispecific protein 2B03 (protein, part only; not given: CD3 fragment and albumin sdAb, part only) chain, part: EVQLVESGGGLVQPGGSLTLSCVASGSTSSINAMGWYRRAPGKQRELVAGISSDGSLVYADSVKGRFTISRDNAKNSVYLQMNSLRAEDTAVYYCYYFTTVSGSSMRYWGQGTLVTVSSGGGGSGGGSGGGGSGGGSHHHHHH .
7.6
